So I've got a bunch of molecules here, and I need their TGI values.
System: SNB-19 CNS
ASSAY_NAME: NCI tumour cell line growth inhibition, 48 h

I would be grateful if you could share the reported TGI for `OC(O)(C(F)(F)F)C(F)(F)F` . > 100 µM

Could you share which TGI value was measured for O=C1C2=C(c3ccccc31)C(c1ccc(F)cc1)N1C(=O)CCSC1=N2 (configuration not stated) ? > 100 µM

# get_value(readout='TGI', item= `CC[C@H](C)[C@H](NC(=O)c1nccn1C)C(=O)N(C)[C@H](C[C@@H](OC(C)=O)c1nc(C(=O)N[C@@H](Cc2ccccc2)C[C@H](C)C(=O)OC)cs1)C(C)C` ) > 33.3 µM

Quick check: TGI of CN/N=C(\C(=O)Nc1ccc([N+](=O)[O-])cc1[N+](=O)[O-])C1NC(=O)NC1=O (configuration not stated) ? > 100 µM

Reported TGI, molecule `C(#Cc1ccccc1C#Cc1ccccn1)c1ccccn1` : ____ 39.3 µM

For the molecule C[C@]12CC[C@H]3[C@@H](CCC4=C[C@@H](OC5OCC(OC6OC(CO)C(O)C(O)C6O)C(O)C5O)CC[C@@]43C=O)[C@@]1(O)CCC2C1=CC(=O)OC1 (some centres not stated) , what TGI is on record? 11.9 µM

Need TGI of `N#Cc1c(NCc2ccccc2)nc(NCc2ccccc2)c(C#N)c1-c1cccc(O)c1` , thanks. > 100 µM

Fill in the blank: the reported TGI of Cc1c(N)nc(C(CC(N)=O)NCC(N)C(N)=O)nc1C(=O)NC(C(=O)NC(C)C(O)C(C)C(=O)NC(C(=O)NCCc1nc(-c2nc(C(=O)NCCCNCCCCN)cs2)cs1)C(C)O)C(OC1OC(CO)C(O)C(O)C1OC1OC(CO)C(O)C(OC(N)=O)C1O)c1cnc[nH]1 (configuration not stated) is ____. > 10 µM

Which TGI is reported for this molecule? N#CC1CCc2c(c(-c3cn[nH]c3C(F)(F)F)nc3c(F)cc4[nH]ncc4c23)C1 (configuration not stated) 61.5 µM

Requested field: TGI. Item: `c1ccc(-c2[nH]c(-c3ccccc3)c(-c3cnccn3)c2-c2cnccn2)cc1` > 100 µM

Fill in the blank: the reported TGI of `Cc1nn(-c2ccccn2)c2c1C(SC#N)=C(C=O)CC2` is ____. 47.8 µM

What measured TGI goes with `O=C(Nc1nc(C23CC4CC(CC(C4)C2)C3)cs1)c1cc2cc([N+](=O)[O-])ccc2oc1=O` ? > 100 µM

----------
Test system: A498 renal
ASSAY_NAME: NCI tumour cell line growth inhibition, 48 h
READOUT: TGI

Reported TGI for `C=C1C[C@@H]2[C@H](CC[C@]3(C)C(=O)CC[C@@H]23)[C@@]2(C)C=CC(=O)C=C12` : what is it? > 90.3 µM

Looking for the measured TGI of O=C1NC(O)CCN1C1CC(O)C(CO)O1 (stereo unspecified) , can you help? > 100 µM

Endpoint output: TGI of `Cc1nnc2sc(-c3ccc([N+](=O)[O-])o3)nn12` . Value? > 100 µM

Could you tell me which TGI is on file for `O[C@H](CN1CC1)[C@@H](O)CN1CC1` ? 21.7 µM

Returns the measured TGI for the input compound. Input: `O=C(Nc1ccccc1C(=O)Nc1nccs1)c1ccccc1` > 100 µM

Query: TGI; subject: `N#Cc1ncc(N2C(=O)C3(CCC3)N(c3ccc(OC4CCNCC4)nc3)C2=S)cc1C(F)(F)F` 32.7 µM

# query: TGI of entry COC(=O)C(C(=O)OC)C1CC(=O)c2c(Br)sc(Br)c21 (stereo unspecified) > 100 µM

Need TGI of O=C(NC/C=C/Br)NC1CCNc2ccccc21 (stereo unspecified) , thanks. 70.4 µM

Need TGI, item `c1ccc(-c2[nH]c(-c3ccccc3)c(-c3cnccn3)c2-c2cnccn2)cc1` > 100 µM

Using the record for COC(=O)C1=C(C)NC2(C)OC(C)(O)C(C(C)=O)C12C(C)=O (stereo unspecified) , report its TGI. > 100 µM

Can you share its TGI? I mean this compound: COc1ccccc1N1C(=O)/C(=C\c2cccc(Oc3ccccc3)c2)S(=O)(=O)C1c1ccccc1 (stereo unspecified) > 100 µM
